# studyTarget: T1, human MIC-1 receptor (hGFRAL, GDNF family receptor alpha like), full length (human, UniProt Q6UXV0 19-394)
# T1 sequence (looked up): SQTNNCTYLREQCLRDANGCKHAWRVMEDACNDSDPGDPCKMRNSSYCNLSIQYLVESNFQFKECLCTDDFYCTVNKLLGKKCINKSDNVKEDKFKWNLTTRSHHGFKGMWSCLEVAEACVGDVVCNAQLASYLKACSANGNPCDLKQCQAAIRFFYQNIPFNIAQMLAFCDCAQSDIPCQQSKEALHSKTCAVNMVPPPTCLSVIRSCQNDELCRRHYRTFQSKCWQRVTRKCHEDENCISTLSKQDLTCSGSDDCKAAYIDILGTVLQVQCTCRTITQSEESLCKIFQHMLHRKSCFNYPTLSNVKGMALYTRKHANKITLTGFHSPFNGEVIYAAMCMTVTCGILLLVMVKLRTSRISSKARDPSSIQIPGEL
# assayDetails: cell-based or functional assay
readout: Luciferase NNDK EC50 (pM)
Give your result in pM as a bare value.

Record excerpt, results attached:
- binder: "SEPATSGSETPGTSESACPESGPGTSTEPSEG-MIC-1, des-N3, M57L, M86L (Cys mutation T(-15)C) (ligand, homodimer; no protractor) SEPATSGSETPGTSESACPESGPGTSTEPSEGARGDHCPLGPGRCCRLHTVRASLEDLGWADWVLSPREVQVTMCIGACPSQFRAANLHAQIKTSLHRLKPDTVPAPCCVPASYNPLVLIQKTDTGVSLQTYDDLLAKDCHCI"
  Luciferase NNDK EC50 (pM): 125
- binder: "SEPATSGSETPGTSESATPESGPGTSTEPSEG-MIC-1, del-N3, M57L, M86L, K69R, K107R, K91R (ligand, homodimer; no protractor) SEPATSGSETPGTSESATPESGPGTSTEPSEGARGDHCPLGPGRCCRLHTVRASLEDLGWADWVLSPREVQVTMCIGACPSQFRAANLHAQIKTSLHRLRPDTVPAPCCVPASYNPLVLIQRTDTGVSLQTYDDLLARDCHCI"
  Luciferase NNDK EC50 (pM): 42
- binder: "Compound 07 (ligand, Cys-15 (residue 18 of SEQ ID NO: 292): S{Beta}-[2-[2-[[2-[2-[2-[[2-[2-[2-[[(4S)-4-carboxy-4-(17-carboxyheptadecanoylamino)butanoyl]amino]ethoxy]ethoxy]acetyl]amino]ethoxy]ethoxy]acetyl]amino]ethylamino]-2-oxoethyl]Cys (protractor of Example 10.4), homodimer, two protractors per dimer) SEPATSGSETPGTSESACPESGPGTSTEPSEGARGDHCPLGPGRCCRLHTVRASLEDLGWADWVLSPREVQVTMCIGACPSQFRAANLHAQIKTSLHRLKPDTVPAPCCVPASYNPLVLIQKTDTGVSLQTYDDLLAKDCHCI"
  Luciferase NNDK EC50 (pM): 121

Moving on to another binder below.
Return the recorded Luciferase NNDK EC50 (pM) value; entry: Compound 03 (ligand, Cys-27 (residue 6 of SEQ ID NO: 291): S{Beta}-[2-[2-[[2-[2-[2-[[2-[2-[2-[[(4S)-4-carboxy-4-(15-carboxypentadecanoylamino)butanoyl]amino]ethoxy]ethoxy]acetyl]amino]ethoxy]ethoxy]acetyl]amino]ethylamino]-2-oxoethyl]Cys (protractor of Example 10.2), homodimer, two protractors per dimer) SEPATCGSETPGTSESATPESGPGTSTEPSEGARGDHCPLGPGRCCRLHTVRASLEDLGWADWVLSPREVQVTMCIGACPSQFRAANMHAQIKTSLHRLKPDTVPAPCCVPASYNPMVLIQKTDTGVSLQTYDDLLAKDCHCI
96
